test_name: NCI Yeast Anticancer Drug Screen. Data for the mlh1 rad18 strain (AID 175)
details: S. cerevisiae mlh1 rad18 strain growth inhibition; at 50.0 µM; active compounds read high
Experimental: Growth inhibition of yeast strains with defined genetic alterations is measured as a screen for potential anti-cancer activity. Selected strains with alterations in DNA damage repair or cell cycle control were exposed to compounds and growth inhibition was measured relative to vehicle treated controls. The strain used in this assay is mlh1 rad18
About 79,000 compounds went through this panel and 15% of them were active in at least one assay; those are over-represented in the sample as a whole.
Answer each item with its documented growth inhibition.
Numbers only, in %.

Record excerpt, results attached:
Cn1nc(C(=O)NN)c(=O)[nH]c1=O = 16.9
O=C1Oc2ccccc2C(=O)C1=Ic1ccccc1 = 56
O=C(NC(Cc1ccccc1)C(=O)O)Oc1ccc2ccccc2c1 (stereo not drawn) = -5.2
CCCN1C(=O)CC(NC(C)=O)C1=O (stereo not drawn) = 9.65
O=Cc1c(O)ccc2ccc3ccccc3c12 = 16.4

Batch: growth inhibition for all items listed.
1. O=[N+]([O-])c1nc(-[n+]2ccccc2)[n-]c1Br
2. CN(CC1CCCCC1=O)CC1CCCCC1=O (stereo not drawn)
3. CCC(NC(C)c1ccccc1)C(O)c1ccc(OCc2ccccc2)c(OCc2ccccc2)c1 (stereo not drawn)
4. C/C(=N\N(C)C)c1sc(-n2nc(-c3ccccc3)cc2-c2ccccc2)nc1C
5. CC12CC(C/C1=N/O)C(C)(C)C2 (stereo not drawn)
6. CCOC(=O)CSCCC(=O)OC
7. COC(=O)C1OC(Sc2ncnc3nc[nH]c23)C(O)C(O)C1O (stereo not drawn)
8. CCCCCCCCCCCCCC(=O)OC

1. 8.8
2. -3.55
3. 87.7
4. 8.75
5. 9.6
6. 1.35
7. 4.9
8. 31.4

Batch: growth inhibition for all items listed.
1. c1ccc(OCCSCCCCCCCCCCSCCOc2ccccc2)cc1
2. Cc1c(C)c(C)c(Br)c(C)c1C
3. CC(C)CCCC(C)[C@H]1CCC2[C@@H]3CCC4Cc5nc6c(nc5C[C@]4(C)C3CC[C@@]21C)CC1CC[C@@H]2C(C[C@@H](O)[C@@]3(C)C2C[C@@H]2OC4(CCC(C)CO4)C(C)[C@@H]23)[C@@]1(C)C6 (stereo partly drawn)
4. O=C(NCc1ccco1)Nc1ccccc1Cl
5. CCOC(=O)c1c(N=P(c2ccccc2)(c2ccccc2)c2ccccc2)nnc(-c2ccccc2)c1-c1ccccc1

1: -24.5; 2: 0.65; 3: -8.65; 4: -11; 5: 6.5

====

test_name: NCI Yeast Anticancer Drug Screen. Data for the mec2-1 strain (AID 157)
details: S. cerevisiae mec2-1 strain, at 50.0 µM, active compounds read high
This is part of a sample that, as a whole, favours compounds with a hit. Of some 79,000 tested, about 15% had one in any assay.
endpoint: growth inhibition (%)
Numbers only, in %.

CC12CCCCC1CC(=O)/C(=C\O)C2 (centres undefined) = 15.1
CC(=O)c1ccc(NC(N)=O)cc1 = -10.4
CC(=O)Nc1cc(OC(C)=O)nc2c1CCC2 = -0.05
O=C(Nc1ccc(Cl)c(Cl)c1)OCCN1CCOCC1 = 97.2

Batch: growth inhibition for all items listed.
1. C(#CC(Sc1ccccc1)=C(Sc1ccccc1)Sc1ccccc1)Sc1ccccc1
2. CC(=O)N(C(C)=O)C(CS)C(=O)O (centres undefined)
3. O=C1CCCC2=C(N1)C(=O)C=CC2=O
4. CC(=O)NC1C(O)C(O)C(CO)OC1n1ncc(=O)[nH]c1=O (centres undefined)

[2.15, -11.8, 20.9, 22.8]

====

Answer each item with its documented growth inhibition.
test_name: NCI Yeast Anticancer Drug Screen. Data for the sgs1 mgt1 strain (AID 161);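 note: 0% = growth of cultures given vehicle only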
details: S. cerevisiae sgs1 mgt1 strain, at 50.0 µM, active compounds read high
The panel holds about 79,000 compounds, 15% with a hit somewhere; the sample as a whole holds those more often.
Answers are plain numbers, in %.

Record excerpt, results attached:
COc1cc2c(cc1OC)C(=O)CC2 = -19.7
CCOC(=O)C(=O)C(Cc1ccccc1)C(=O)OCC (configuration not stated) = 9.75
O=S(=O)(O)C(CO)c1ccccc1 (configuration not stated) (tested in a mixture with another compound) = -12.9
CCNCCCCNCC = -18.6
CC(O)COC(C)c1ccccc1 (configuration not stated) = -0.7
CN(C)C(=O)c1cc2ccccc2[nH]1 = 6.7

Batch: growth inhibition for all items listed.
1. Cc1noc2c1C(=O)CCC2
2. C=C(C)C(C)(C)/C(C)=N\Nc1ccc([N+](=O)[O-])cc1[N+](=O)[O-]
3. COc1ccc(-c2c3c([nH]c(=S)c2C#N)CCC3)cc1
4. COc1ccc(C(O)c2ccc(OC)cc2)cc1
5. O=c1[nH]cc(CNC2CCCCC2)c(=O)[nH]1

1. 17.8
2. 6.2
3. 33
4. -23.9
5. 7.65

Recorded growth inhibition (compound O=c1[nH]nc(-c2ccc(Cl)cc2)c2cc(Cl)c(Cl)cc12 ): -10.7

====

test_name: NCI Yeast Anticancer Drug Screen. Data for the sgs1 mgt1 strain (AID 161);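 note: 0% = growth of cultures given vehicle only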
details: S. cerevisiae sgs1 mgt1 strain, at 50.0 µM, active compounds read high
Compounds without any hit were thinned out: in the full panel of roughly 79,000, 15% have a hit.
endpoint: growth inhibition (%)
Give bare numbers, in %.

Record excerpt, results attached:
Oc1c(CN2CCN(c3ccccc3)CC2)cc(Br)c2cccnc12 = 41.4
NC(=S)N/N=C\C(CC(O)C(O)CO)=N\NC(N)=S (stereo not given) = 4.45
Cc1cc(=O)[nH]c2c(C)cc(Cl)cc12 = 14.9
Cc1ccc2c(c1)C(=O)/C(=N/Nc1ccc(Cl)cc1)CCO2 = 6.2

With those in mind, consider the next compound.
Recorded growth inhibition (compound CCOC(=O)c1c(N)sc2c1C(C(=O)OCC)CC2 (stereo not given) ): -8.05

====

test_name: NCI Yeast Anticancer Drug Screen. Data for the mlh1 rad18 strain (AID 175)
details: S. cerevisiae mlh1 rad18 strain growth inhibition; at 50.0 µM; active compounds read high
Compounds without any hit were thinned out: in the full panel of roughly 79,000, 15% have a hit.
endpoint: growth inhibition (%)
Numbers only, in %.

Record excerpt, results attached:
Cl[Si]1(Cl)Oc2ccccc2O[Si](Cl)(Cl)Oc2ccccc2O1 = 10.2
Clc1ccc2c(c1)CCc1cccnc1C2=C1CCNCC1 = -15.1
O=c1[nH]c(=O)n(C2OC(CO)C(O)C2O)cc1OCc1ccccc1 (configuration not stated) = -31.5
CCN(CC)Cc1cc(Nc2cc(C)nc(/N=C(\N)Nc3cc(Cl)cc(Cl)c3)n2)ccc1O = 91.1
COc1c2c(cc3c1[C@@H]1Oc4c(ccc(O)c4CC=C(C)C)[C@@H]1CO3)OC(C)(C)C=C2 = 41.4
COC(=O)c1cc(-c2cccc3ccccc23)[nH]c(=O)c1C#N = 21.9

With those in mind, consider the next compound.
Recorded growth inhibition (compound CCCC(=O)CC(C)C(=O)C(=O)NC12CC3CC(CC(C3)C1)C2 (configuration not stated) ): 30.3

====

test_name: NCI Yeast Anticancer Drug Screen. Data for the cln2 rad14 strain (AID 165);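 note: 0% = growth equal to vehicle treated cultures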
details: S. cerevisiae cln2 rad14 strain, at 50.0 µM, active compounds read high
Compounds without any hit were thinned out: in the full panel of roughly 79,000, 15% have a hit.
# if value of growth inhibition reaches 10%, tag True; if it stays below, tag False

Example entries and their recorded answers appear below.
c1ccc(-c2ccc3c4ccccc4ccn23)cc1 = True
CC(=N/O)/C(C)=C/c1ccccc1 = False
O=C(Cc1ccc(Cl)cc1)NCCc1ccccc1 = True

Does the compound CCC(CO)(C(=O)O)c1ccccc1 (configuration not stated) have recorded growth inhibition that is 10% or more?
True

Does the compound O=c1c(SCc2ccccc2Cl)c(SCc2ccccc2Cl)cnn1-c1ccccc1 have recorded growth inhibition that is 10% or more?
True

Does the compound O=C1C(CO)=C[C@@H](O)[C@H]2O[C@@H]12 have recorded growth inhibition that is 10% or more?
False

Does the compound NNC1=Nc2ccc(Cl)cc2C(=S)N2CSCC12 (configuration not stated) have recorded growth inhibition that is 10% or more?
False

Does the compound O=[N+]([O-])c1cccnc1Sc1ccccc1C1=NCCCN1 have recorded growth inhibition that is 10% or more?
True

Does the compound O=C(N/N=C/c1ccccc1)c1c(-c2cccnc2)cnc2ccccc12 have recorded growth inhibition that is 10% or more?
True

Does the compound NOCc1cc(Cl)sc1Cl have recorded growth inhibition that is 10% or more?
True

====

test_name: NCI Yeast Anticancer Drug Screen. Data for the mlh1 rad18 strain (AID 175)
details: S. cerevisiae mlh1 rad18 strain growth inhibition; at 50.0 µM; active compounds read high
Compounds without any hit were thinned out: in the full panel of roughly 79,000, 15% have a hit.
endpoint: growth inhibition (%)
One number for each entry, in %.

O=C(Nc1ccc(Cl)c(Cl)c1)Oc1ccc2ccccc2c1 = 61.1
CCCCCCCCCCCCCCNC(=O)CCl = -16.2
CN/N=C(\C)CC(=O)Nc1cccc(Cl)c1C = 1.9

Batch: growth inhibition for all items listed.
1. O=c1oc2ccc(Br)cc2cc1-n1nnc2ccccc21
2. CN(C)C(=O)Nc1cccc2nsnc12
3. C[n+]1ccc2ccccc2c1C#N
4. COc1ccccc1C1OC2=C(Nc3ccc([N+](=O)[O-])cc3N2)C1=O (centres undefined)
5. S=c1[nH]c2ccccc2n1CCc1ccncc1
6. C[n+]1ccc(CCC(=O)Nc2ccccc2)cc1

1. 5.55
2. 29.6
3. 14.9
4. 28.1
5. 3.5
6. 3
